assay: Permeability across basal to apical side in human Caco-2 cells assessed as drug recovery measured at 0.5 to 2 hrs by LC-MS analysis relative to control; assay type: ADME, cell-based; settings: time 0.5-2 hrs, read-out: Drug recovery
Non-standard residues stand in square brackets, D forms with d. Residues, ends and D or L forms follow the SMILES beside them. NMeL = CN[C@@H](CC(C)C)C(=O)O; Nva = CCC[C@H](N)C(=O)O; Sar = CNCC(=O)O
Label scheme for recovery: lower than 80% is False, 80% and above is True.

The examples below pair each entry with its known result.
- Molecule: "CCC[C@@H]1NC(=O)[C@H](CC(C)C)N(C)C(=O)[C@H](C(C)C)N(C)C(=O)[C@H](CC(C)C)N(C)C(=O)[C@H](CC(C)C)N(C)C(=O)[C@@H](C)NC(=O)[C@H](CCC(N)=O)NC(=O)[C@H](CC(C)C)N(C)C(=O)[C@H](C(C)C)NC(=O)[C@H](CC(C)C)N(C)C(=O)CN(C)C1=O"
  Group label: "True"
- Molecule: "CCC[C@@H]1NC(=O)[C@H](CC(C)C)N(C)C(=O)[C@H](CC(C)C)N(C)C(=O)[C@H](CC(C)C)N(C)C(=O)[C@H](CC(C)C)N(C)C(=O)[C@@H](C)NC(=O)[C@H](CCC(N)=O)NC(=O)[C@H](CC(C)C)N(C)C(=O)[C@H](C(C)C)NC(=O)[C@H](CC(C)C)N(C)C(=O)CN(C)C1=O (cyclo([NMeL][NMeL][NMeL][NMeL][Nva][Sar][NMeL]V[NMeL]Q[dA]))"
  Group label: "True"
- Molecule: "CC(C)NCC(O)COc1ccc(CC(N)=O)cc1 (stereo not given)"
  Group label: "True"

Could you verify whether the entry CCC[C@@H]1NC(=O)[C@H](CC(C)C)N(C)C(=O)[C@H](CC(C)C)N(C)C(=O)[C@H](CC(C)C)N(C)C(=O)[C@H](CC(C)C)N(C)C(=O)[C@@H](C)NC(=O)[C@H](C)NC(=O)[C@H](CC(C)C)N(C)C(=O)[C@H](C(C)C)NC(=O)[C@H](CC(C)C)N(C)C(=O)CN(C)C1=O shows recovery of no less than 80%?
False
